Target: IDO1 (Homo sapiens, UniProt P14902)
Construct: HeLa cells were treated with a test compound in the presence of IFNγ, which induces IDO1 expression; host or cells: H1-HeLa cells, IDO1 induced with IFNγ
Sequence (P14902 whole entry): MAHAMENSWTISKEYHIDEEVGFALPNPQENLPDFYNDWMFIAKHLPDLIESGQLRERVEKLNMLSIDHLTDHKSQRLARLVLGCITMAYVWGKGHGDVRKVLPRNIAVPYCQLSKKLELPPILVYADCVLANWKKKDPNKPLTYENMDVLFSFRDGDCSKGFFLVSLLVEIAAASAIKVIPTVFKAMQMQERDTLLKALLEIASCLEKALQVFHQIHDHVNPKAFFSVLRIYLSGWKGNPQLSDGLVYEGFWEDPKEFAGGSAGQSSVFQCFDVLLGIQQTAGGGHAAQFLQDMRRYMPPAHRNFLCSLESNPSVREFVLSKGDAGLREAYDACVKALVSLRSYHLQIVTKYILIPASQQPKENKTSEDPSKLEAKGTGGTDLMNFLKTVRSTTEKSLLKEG
Test: Cell-based (HeLa) assay for measurement of IDO1 inhibition (kynurenine levels in supernatant after IFNγ induction)
Conditions: HeLa cells, IFNγ-induced IDO1, kynurenine in supernatant, 48 hour incubation; geometric mean of a minimum of four determinations
pEC50: −log10 of the molar value.
Overview of reported pEC50 across a group of compounds:
measured_quantity: pEC50

{"compound": "CN(C)CCCNc1nc2c(F)c(F)cc(/C(=N/O)Nc3cccc(Br)c3)c2[nH]1", "measured_quantity": "pEC50", "result_qualifier": "=", "observed_measurement": 6.25}
{"compound": "CN(C)[C@H]1CCC[C@H](Nc2nc3c(F)c(F)cc(/C(=N/O)Nc4ccc(F)c(Cl)c4)c3[nH]2)C1", "measured_quantity": "pEC50", "result_qualifier": "=", "observed_measurement": 5.17}
{"compound": "CN(CCc1nc2nccc(/C(=N/O)Nc3ccc(F)c(Cl)c3)c2[nH]1)Cc1ccccc1", "measured_quantity": "pEC50", "result_qualifier": "=", "observed_measurement": 6.10}
{"compound": "O/N=C(\\Nc1ccc(F)c(Cl)c1)c1cc(F)c(F)c2nc(NCCCN3CCCC3)[nH]c12", "measured_quantity": "pEC50", "result_qualifier": "=", "observed_measurement": 5.91}
{"compound": "O/N=C(\\Nc1ccc(F)c(Cl)c1)c1ccnc2nc(NCCN3CCC(F)(F)C3)[nH]c12", "measured_quantity": "pEC50", "result_qualifier": "=", "observed_measurement": 6.04}
{"compound": "CC(C)N1CCCC(Nc2nc3c(F)c(F)cc(C(=NO)Nc4ccc(F)c(Cl)c4)c3[nH]2)C1 (stereo not drawn)", "measured_quantity": "pEC50", "result_qualifier": "=", "observed_measurement": 6.42}
{"compound": "CN(C)[C@@H]1CCCC[C@H]1Nc1nc2c(F)c(F)cc(/C(=N/O)Nc3ccc(F)c(Cl)c3)c2[nH]1", "measured_quantity": "pEC50", "result_qualifier": "=", "observed_measurement": 6.00}
{"compound": "CN(C)CC(O)CNc1nc2c(F)c(F)cc(/C(=N/O)Nc3ccc(F)c(Cl)c3)c2[nH]1 (stereo not drawn)", "measured_quantity": "pEC50", "result_qualifier": "=", "observed_measurement": 5.95}
{"compound": "O=S1(=O)CCN(CCNc2nc3c(F)c(F)cc(/C(=N/O)Nc4ccc(F)c(Cl)c4)c3[nH]2)CC1", "measured_quantity": "pEC50", "result_qualifier": "=", "observed_measurement": 5.62}
{"compound": "O/N=C(\\Nc1ccc(F)c(Cl)c1)c1cc(F)c(F)c2nc(N[C@@H]3CCCCNC3)[nH]c12", "measured_quantity": "pEC50", "result_qualifier": "=", "observed_measurement": 5.99}
{"compound": "CN1CCOC[C@H]1CNc1nc2nccc(/C(=N/O)Nc3ccc(F)c(Cl)c3)c2[nH]1", "measured_quantity": "pEC50", "result_qualifier": "=", "observed_measurement": 5.58}
{"compound": "COc1c(F)cc(/C(=N/O)Nc2ccc(F)c(Cl)c2)c2[nH]cnc12", "measured_quantity": "pEC50", "result_qualifier": "=", "observed_measurement": 6.68}
{"compound": "N[C@@H]1CCCC[C@@H]1Nc1nc2c(F)c(F)cc(/C(=N/O)Nc3ccc(F)c(Cl)c3)c2[nH]1", "measured_quantity": "pEC50", "result_qualifier": "=", "observed_measurement": 5.12}
{"compound": "O/N=C(\\Nc1ccc(F)c(Cl)c1)c1cc(F)c(F)c2nc(N[C@H]3CCCNC3)[nH]c12", "measured_quantity": "pEC50", "result_qualifier": "=", "observed_measurement": 5.71}
{"compound": "CC(CN(C)C)c1nc2nccc(/C(=N/O)Nc3ccc(F)c(Cl)c3)c2[nH]1 (stereo not drawn)", "measured_quantity": "pEC50", "result_qualifier": "=", "observed_measurement": 5.39}
{"compound": "CN(C)CCNc1nc2c(F)c(F)cc(/C(=N/O)Nc3cccc(Cl)c3)c2[nH]1", "measured_quantity": "pEC50", "result_qualifier": "=", "observed_measurement": 6.86}
{"compound": "CC(CN(C)C)Nc1nc2c(F)c(F)cc(/C(=N/O)Nc3ccc(F)c(Cl)c3)c2[nH]1 (stereo not drawn)", "measured_quantity": "pEC50", "result_qualifier": "=", "observed_measurement": 5.86}
{"compound": "CC1CN(C(C)(C)CNc2nc3nccc(/C(=N/O)Nc4ccc(F)c(Cl)c4)c3[nH]2)CC(C)O1 (stereo not drawn)", "measured_quantity": "pEC50", "result_qualifier": "=", "observed_measurement": 6.25}
{"compound": "O/N=C(\\Nc1ccc(F)c(Cl)c1)c1cc(F)c(F)c2nc(NCCn3cccn3)[nH]c12", "measured_quantity": "pEC50", "result_qualifier": "=", "observed_measurement": 5.45}
{"compound": "CC(=O)NCCNc1nc2nccc(/C(=N/O)Nc3ccc(F)c(Cl)c3)c2[nH]1", "measured_quantity": "pEC50", "result_qualifier": "<", "observed_measurement": 5.00}
{"compound": "CN(C)c1ccccc1CNc1nc2c(F)c(F)cc(/C(=N/O)Nc3ccc(F)c(Cl)c3)c2[nH]1", "measured_quantity": "pEC50", "result_qualifier": "=", "observed_measurement": 5.46}
{"compound": "CC(Cc1nc2nccc(/C(=N/O)Nc3ccc(F)c(Cl)c3)c2[nH]1)N(C)C (stereo not drawn)", "measured_quantity": "pEC50", "result_qualifier": "=", "observed_measurement": 5.49}
{"compound": "C[C@@H]1CN(CCNc2nc3nccc(/C(=N/O)Nc4ccc(F)c(Cl)c4)c3[nH]2)C[C@H](C)O1", "measured_quantity": "pEC50", "result_qualifier": "=", "observed_measurement": 6.00}
{"compound": "N#CCCNc1nc2c(F)c(F)cc(/C(=N/O)Nc3ccc(F)c(Cl)c3)c2[nH]1", "measured_quantity": "pEC50", "result_qualifier": "=", "observed_measurement": 5.75}
